Could you please report measured koff for the items listed next?
# targetOfAssay: T1, human DKK1 (human, UniProt O94907 32-266)
# T1 construct: also called huDKK1; hDKK1
# T1 sequence: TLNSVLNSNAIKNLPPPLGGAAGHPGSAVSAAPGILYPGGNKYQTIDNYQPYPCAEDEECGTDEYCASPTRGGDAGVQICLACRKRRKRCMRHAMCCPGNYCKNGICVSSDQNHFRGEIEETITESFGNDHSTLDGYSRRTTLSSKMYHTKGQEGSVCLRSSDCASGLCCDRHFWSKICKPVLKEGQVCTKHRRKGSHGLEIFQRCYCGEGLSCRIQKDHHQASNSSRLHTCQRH
# testSummary: BiaCore 2000
Numbers only; they are read as s⁻¹.

Fill blank: measured koff of the binder 2.40.1 (antibody, V domains shown, Fully human hybridoma IgG, kappa (Vk)) VH: QVQLVESGGGVVQPGRSLRLSCAASGFTFSSYGMHWVRQAPGKGLGWVAVISYDGSDKYYADSVKGRFTISRDNSKNTLYLQMNSLRAEDTAVYYCARDLVDTAMPWGQGTTVTVSS VL: DIVMTQSPLSLSVTPGQPASISCKSSQSLLHSDGKTYLYWYLQKPGQPPQLLIYEVSNRFSGVPDRFSGSGSGTDFTLKISRVEAEDVGVYYCMQSIQVPWTFGQGTKVEIK is ____.
6.27e-05

I am curious: what koff value has been reported for 6.139.5 (antibody, V domains shown, Fully human hybridoma IgG, kappa (Vk)) VH: QVQLVESGGGVVQPGRSLRLSCAASGFTFSSYGMHWVRQAPGKGLEWVAVISYDGGDQYYADSVKGRFTISRDNSKNTLYLQMNSLRTEDTAEYYCARELRVLWGQGTLVTVSS VL: DIVMTQTPLSLSVTPRQPASISCKSSQSLLHSDGKTYLYWYLQKPGQPPQFLIYEVSNRFSGVPDRFSGSGSGTDFTLKISRVEAEDVGVYYCMQSIQLPWTFGQGTKVEIK ?
0.000209

What koff value was documented for this binder, 5.40.1 (antibody, V domains shown, Fully human hybridoma IgG, kappa (Vk)) VH: QVLLQESGPGLVKPSETLSLTCTVSGGSISSYYWSWIRQTPGKGLEWIGYVYYSGSTSYNPSLKSRVTISMYTSKTEFSLKLSSVTAADTAVYYCARYNWNNDLFDYWGQGTLVTVSS VL: DIRLTQSPSSLSASVGDRVTITCQASQDISNYLNWYQQEPGKAPKLLIYDASNLETGVPSRFSGSGSGTDFTFTISSLQPEDIATYYCQQYDNFPLTFGGGTKVEIK ?
0.000281
